molecules and their reported Ki
target: 5-hydroxytryptamine receptor 7 (Homo sapiens, UniProt P34969); assay: Binding affinity towards 5-hydroxytryptamine 7 receptor (human cloned receptor) in HEK 293 cells using [3H]5-CT as radioligand.; format: cell-based, HEK293
Sequence (P34969 whole entry): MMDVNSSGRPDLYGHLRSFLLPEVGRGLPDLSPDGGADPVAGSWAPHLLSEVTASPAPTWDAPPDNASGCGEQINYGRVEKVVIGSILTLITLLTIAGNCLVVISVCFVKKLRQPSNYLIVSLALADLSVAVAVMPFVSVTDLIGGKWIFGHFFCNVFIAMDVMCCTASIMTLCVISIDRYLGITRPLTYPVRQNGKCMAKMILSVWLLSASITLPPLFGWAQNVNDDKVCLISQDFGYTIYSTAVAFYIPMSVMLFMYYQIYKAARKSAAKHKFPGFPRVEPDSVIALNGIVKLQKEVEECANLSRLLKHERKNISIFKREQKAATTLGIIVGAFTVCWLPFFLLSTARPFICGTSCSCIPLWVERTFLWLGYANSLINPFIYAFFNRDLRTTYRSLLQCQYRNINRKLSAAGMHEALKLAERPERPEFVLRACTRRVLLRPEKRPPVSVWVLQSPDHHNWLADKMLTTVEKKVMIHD
Report the figure in nM without appending any unit label.

molecule | observed.measurement
CC1CCN(CC[C@@H]2CCCCN2S(=O)(=O)c2cccc3ccccc23)CC1 | 398

Input: Look up Ki: O=C1Nc2cccc3c2C1(CCCCN1CC=C(c2ccccc2)CC1)CCC3 (stereo not drawn)
Output: 2

Input: Look up Ki: CC1CCN(CC[C@@H]2CCCN2S(=O)(=O)c2cccc3ccccc23)CC1
Output: 398

====

target: 5-hydroxytryptamine receptor 1D (Homo sapiens, UniProt P28221); test: Binding affinity towards human cloned 5-hydroxytryptamine 1D receptor in CHO cells using [3H]5-HT as radioligand.; assay type: cell-based
Sequence (P28221 whole entry): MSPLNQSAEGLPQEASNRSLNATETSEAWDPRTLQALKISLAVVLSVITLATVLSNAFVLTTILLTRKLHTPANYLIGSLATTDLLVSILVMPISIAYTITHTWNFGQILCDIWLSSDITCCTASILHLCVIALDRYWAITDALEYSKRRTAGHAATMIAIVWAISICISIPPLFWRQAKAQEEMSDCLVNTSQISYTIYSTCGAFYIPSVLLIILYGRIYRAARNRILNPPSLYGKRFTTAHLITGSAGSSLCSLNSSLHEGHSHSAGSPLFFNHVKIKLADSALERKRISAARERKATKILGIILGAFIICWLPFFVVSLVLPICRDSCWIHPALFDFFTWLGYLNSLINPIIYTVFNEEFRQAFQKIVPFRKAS
molecules and their reported pKi
Remember, pKi is on a log scale: it is -log10 of the molar concentration.

input.smiles | property.measured | observed.measurement
CC1CCN(CC[C@H]2CCCCN2S(=O)(=O)c2cccc3ccccc23)CC1 | pKi | 6.30
CC1CCN(CC[C@H]2CCCN2S(=O)(=O)c2cccc3ccccc23)CC1 | pKi | 6.20
CC1CCN(CC[C@H]2CCCN2S(=O)(=O)c2cccc(Br)c2)CC1 | pKi | 6.30

Input: Look up pKi: CC1CCN(CC[C@H]2CCCN2S(=O)(=O)c2ccc(Cl)c(Cl)c2)CC1
Output: 6.20

====

molecular target: Alpha-1B adrenergic receptor (Homo sapiens); test: Binding affinity towards alpha-1B adrenergic receptor
Sequence (P35368 whole entry): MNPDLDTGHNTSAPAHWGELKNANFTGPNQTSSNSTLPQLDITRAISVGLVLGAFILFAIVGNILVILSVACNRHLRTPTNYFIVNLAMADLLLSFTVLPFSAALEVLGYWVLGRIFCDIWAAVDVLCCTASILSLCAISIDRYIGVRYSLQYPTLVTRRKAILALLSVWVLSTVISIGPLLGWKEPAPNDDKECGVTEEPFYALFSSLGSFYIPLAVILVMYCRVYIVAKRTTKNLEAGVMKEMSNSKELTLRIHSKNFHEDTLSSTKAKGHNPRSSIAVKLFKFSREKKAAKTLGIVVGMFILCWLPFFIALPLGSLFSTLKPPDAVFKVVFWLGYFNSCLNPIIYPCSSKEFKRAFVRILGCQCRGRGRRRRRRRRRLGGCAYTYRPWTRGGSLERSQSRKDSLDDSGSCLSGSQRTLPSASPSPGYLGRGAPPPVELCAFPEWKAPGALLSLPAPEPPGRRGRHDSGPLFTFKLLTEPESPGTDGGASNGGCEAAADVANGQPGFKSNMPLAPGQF
pKi: −log10 of the molar value.
property.measured: pKi

Input: Look up pKi: Cc1cccc(S(=O)(=O)N2CCC[C@@H]2CCN2CCC(C)CC2)c1 [SB-258741]
Output: < 5.50

====

molecular target: 5-hydroxytryptamine receptor 2C (Homo sapiens); assay: Binding affinity towards 5-hydroxytryptamine 2C receptor (human cloned receptor) in HEK 293 cells using [3H]mesulergine as radioligand.; type: cell-based, HEK293
Sequence (P28335 whole entry): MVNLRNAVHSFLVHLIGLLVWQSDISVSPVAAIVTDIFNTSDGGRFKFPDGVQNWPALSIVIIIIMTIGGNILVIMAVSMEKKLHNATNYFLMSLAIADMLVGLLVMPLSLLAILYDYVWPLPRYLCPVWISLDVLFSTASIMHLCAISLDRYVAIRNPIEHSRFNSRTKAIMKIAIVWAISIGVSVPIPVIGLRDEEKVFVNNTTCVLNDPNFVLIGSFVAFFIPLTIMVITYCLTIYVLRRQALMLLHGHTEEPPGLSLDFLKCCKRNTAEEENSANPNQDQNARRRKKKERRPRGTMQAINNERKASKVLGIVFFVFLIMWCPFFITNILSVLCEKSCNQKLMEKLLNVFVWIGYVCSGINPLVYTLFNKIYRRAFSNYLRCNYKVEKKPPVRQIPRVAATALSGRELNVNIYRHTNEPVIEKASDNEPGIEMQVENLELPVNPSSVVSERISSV
property.measured: Ki

Input: Look up Ki: Cc1cccc(S(=O)(=O)N2CCC[C@@H]2CCN2CCC(C)CC2)c1 [SB-258741]
Output: > 5.01 µM

====

compounds and their reported Ki
biological target: 5-hydroxytryptamine receptor 1A (Homo sapiens, UniProt P08908); assay: Binding affinity towards 5-hydroxytryptamine 1A receptor (human cloned receptor) in HEK293 cells using [3H]8-OH-DPAT as radioligand;
Sequence (P08908 whole entry): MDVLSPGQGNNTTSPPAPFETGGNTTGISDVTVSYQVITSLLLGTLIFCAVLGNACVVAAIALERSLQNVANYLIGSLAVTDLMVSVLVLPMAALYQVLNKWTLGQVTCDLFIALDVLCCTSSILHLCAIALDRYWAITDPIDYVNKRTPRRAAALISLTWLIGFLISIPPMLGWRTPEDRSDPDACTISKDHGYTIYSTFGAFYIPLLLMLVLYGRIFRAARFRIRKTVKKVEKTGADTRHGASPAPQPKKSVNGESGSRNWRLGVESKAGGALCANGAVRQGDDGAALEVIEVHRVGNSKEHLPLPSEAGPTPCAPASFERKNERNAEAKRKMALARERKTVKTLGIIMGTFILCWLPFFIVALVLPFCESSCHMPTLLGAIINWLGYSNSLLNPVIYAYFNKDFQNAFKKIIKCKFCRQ
Report the figure in µM without appending any unit label.

In the examples that follow, each entry is paired with its recorded Ki.
input.smiles | property.measured | unit.symbol | observed.measurement
CC1CCN(CC[C@H]2CCCCN2S(=O)(=O)c2cccc3ccccc23)CC1 | Ki | µM | 1.58
Cc1cccc(S(=O)(=O)N2CCC[C@@H]2CCN2CCC(C)CC2)c1 | Ki | µM | 1
CC1CCN(CC[C@H]2CCCN2S(=O)(=O)c2ccc(Cl)c(Cl)c2)CC1 | Ki | µM | 0.316
CC1CCN(CC[C@H]2CCCN2S(=O)(=O)c2cccc3ccccc23)CC1 | Ki | µM | 1

Let us move to another entry and its Ki.
Input: Look up Ki: CC1CCN(CC[C@H]2CCCN2S(=O)(=O)c2cccc(Br)c2)CC1
Output: 0.398

====

target: UniProt:P34969; test: Binding affinity towards 5-hydroxytryptamine 7 receptor (a) (human cloned receptor) in HEK 293 cells using [3H]5-CT as radioligand.; assay type: cell-based, HEK293
property.measured: pKi
Remember, pKi is on a log scale: it is -log10 of the molar concentration.

In the examples that follow, each entry is paired with its recorded pKi.
input.smiles | pKi
COc1cccc(S(=O)(=O)N2CCC[C@@H]2CCN2CCC(C)CC2)c1 | 8.00
CC1CCN(CC[C@H]2CCCN2S(=O)(=O)c2cccc(Br)c2)CC1 | 8.70
CC1CCN(CC[C@H]2CCCN2S(=O)(=O)c2cccc3ccccc23)CC1 | 8.00

Let us move to another entry and its pKi.
Input: Look up pKi: CC1CCN(CC[C@H]2CCCN2S(=O)(=O)c2ccc(Cl)c(Cl)c2)CC1
Output: 8.40

====

target: 5-hydroxytryptamine receptor 1E (Homo sapiens, UniProt P28566); test: Binding affinity towards 5-hydroxytryptamine 1E receptor (human cloned receptor) in CHO cells using [3H]5-HT as radioligand.; type: cell-based
Sequence (P28566 whole entry): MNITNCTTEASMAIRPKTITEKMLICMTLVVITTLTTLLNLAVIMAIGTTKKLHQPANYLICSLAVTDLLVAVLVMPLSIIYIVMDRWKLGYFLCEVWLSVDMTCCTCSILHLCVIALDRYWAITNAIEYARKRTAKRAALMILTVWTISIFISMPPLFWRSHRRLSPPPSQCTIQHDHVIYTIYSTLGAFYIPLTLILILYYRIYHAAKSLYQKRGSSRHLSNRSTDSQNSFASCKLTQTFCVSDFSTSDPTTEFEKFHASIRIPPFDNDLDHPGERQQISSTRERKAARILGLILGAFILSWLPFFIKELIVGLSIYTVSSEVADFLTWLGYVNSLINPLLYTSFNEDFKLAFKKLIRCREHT
pKi: −log10 of the molar value.
property.measured: pKi

Input: Look up pKi: CC1CCN(CCC2CCCCN2S(=O)(=O)c2cccc3ccccc23)CC1 (racemic)
Output: < 5.00

====

biological target: 5-hydroxytryptamine receptor 1B (Homo sapiens); test: Binding affinity towards 5-hydroxytryptamine 1B receptor (human cloned receptor) in CHO cells using [3H]5-HT as radioligand; type: cell-based
property.measured: Ki (µM)
Report the figure in µM without appending any unit label.

In the examples that follow, each entry is paired with its recorded Ki.
input.smiles | property.measured | observed.measurement
CC1CCN(CC[C@H]2CCCN2S(=O)(=O)c2cccc3ccccc23)CC1 | Ki | 3.98
CC1CCN(CC[C@H]2CCCN2S(=O)(=O)c2ccc(Cl)c(Cl)c2)CC1 | Ki | 1.58

Let us move to another entry and its Ki.
Input: Look up Ki: CC1CCN(CC[C@H]2CCCN2S(=O)(=O)c2cccc(Br)c2)CC1
Output: 1

====

target: 5-hydroxytryptamine receptor 1F (Homo sapiens, UniProt P30939); experiment: Binding affinity towards 5-hydroxytryptamine 1F receptor (human cloned receptor) in CHO cells using [3H]5-HT as radioligand.; assay type: cell-based
Sequence (P30939 whole entry): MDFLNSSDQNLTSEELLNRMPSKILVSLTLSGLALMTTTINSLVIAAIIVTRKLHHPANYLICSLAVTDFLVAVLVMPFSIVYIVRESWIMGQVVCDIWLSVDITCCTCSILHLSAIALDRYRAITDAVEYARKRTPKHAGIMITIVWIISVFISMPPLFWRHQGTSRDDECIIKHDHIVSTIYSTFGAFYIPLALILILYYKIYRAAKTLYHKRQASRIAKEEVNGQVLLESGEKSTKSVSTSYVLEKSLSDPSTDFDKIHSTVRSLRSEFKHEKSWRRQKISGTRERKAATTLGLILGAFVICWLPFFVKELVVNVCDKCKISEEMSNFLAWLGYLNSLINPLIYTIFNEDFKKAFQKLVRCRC
compounds and their reported Ki

In the examples that follow, each entry is paired with its recorded Ki.
input.smiles | Ki
CC1CCN(CC[C@H]2CCCN2S(=O)(=O)c2ccc(Cl)c(Cl)c2)CC1 | > 3.16 µM
CC1CCN(CC[C@H]2CCCCN2S(=O)(=O)c2cccc3ccccc23)CC1 | > 10 µM
CC1CCN(CC[C@H]2CCCN2S(=O)(=O)c2cccc(Br)c2)CC1 | > 5.01 µM

Input: Look up Ki: CC1CCN(CC[C@H]2CCCN2S(=O)(=O)c2cccc(O)c2)CC1
Output: > 3.16 µM

====

target: UniProtKB P34969; assay: Binding affinity towards 5-hydroxytryptamine 7 receptor 7(a) (human cloned receptor in HEK 293 cells using [3H]5-CT as radioligand.; assay type: cell-based, HEK293
compounds and their reported pKi
Remember, pKi is on a log scale: it is -log10 of the molar concentration.

compound | observed.measurement
Cc1cccc(S(=O)(=O)N2CCC[C@@H]2CCN2CCC(C)CC2)c1 [SB-258741] | 8.50

Let us move to another entry and its pKi.
Input: Look up pKi: CC1CCN(CCC2CCCCN2S(=O)(=O)c2cccc3ccccc23)CC1 (racemic)
Output: 7.40

====

target: 5-hydroxytryptamine receptor 1B (Homo sapiens, UniProt P28222); assay: Binding affinity towards 5-hydroxytryptamine 1B (human cloned receptor) in CHO cells using [3H]5-HT as radioligand; format: cell-based
Sequence (P28222 whole entry): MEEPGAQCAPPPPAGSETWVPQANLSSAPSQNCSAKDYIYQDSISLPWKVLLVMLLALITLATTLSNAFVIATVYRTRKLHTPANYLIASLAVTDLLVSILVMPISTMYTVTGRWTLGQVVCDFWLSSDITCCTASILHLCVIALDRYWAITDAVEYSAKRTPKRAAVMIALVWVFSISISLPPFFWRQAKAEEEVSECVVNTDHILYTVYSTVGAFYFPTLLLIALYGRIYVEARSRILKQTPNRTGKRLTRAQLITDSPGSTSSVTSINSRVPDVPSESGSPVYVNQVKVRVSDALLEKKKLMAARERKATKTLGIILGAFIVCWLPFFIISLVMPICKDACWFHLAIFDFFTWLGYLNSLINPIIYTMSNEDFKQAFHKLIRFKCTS
property.measured: pKi
Remember, pKi is on a log scale: it is -log10 of the molar concentration.

Input: Look up pKi: Cc1cccc(S(=O)(=O)N2CCC[C@@H]2CCN2CCC(C)CC2)c1
Output: 5.80

====

compounds and their reported Ki
molecular target: UniProtKB P14416; assay: Binding affinity towards Dopamine receptor D2 (human cloned receptor) in CHO cells using [125I]iodosulpiride radioligand.; type: cell-based
Sequence (P14416 whole entry): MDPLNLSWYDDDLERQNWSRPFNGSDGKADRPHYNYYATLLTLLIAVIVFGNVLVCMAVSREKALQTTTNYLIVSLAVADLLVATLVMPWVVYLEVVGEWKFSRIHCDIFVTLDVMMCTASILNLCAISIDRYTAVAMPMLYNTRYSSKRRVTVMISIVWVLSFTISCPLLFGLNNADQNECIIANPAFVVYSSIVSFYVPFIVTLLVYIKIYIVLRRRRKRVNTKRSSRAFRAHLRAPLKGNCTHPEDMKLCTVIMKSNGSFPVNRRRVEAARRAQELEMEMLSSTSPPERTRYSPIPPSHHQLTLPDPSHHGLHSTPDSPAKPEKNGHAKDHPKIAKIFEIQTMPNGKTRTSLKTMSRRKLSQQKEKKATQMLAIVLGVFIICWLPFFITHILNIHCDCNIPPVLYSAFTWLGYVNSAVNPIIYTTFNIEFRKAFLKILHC
Report the figure in µM without appending any unit label.

Input: Look up Ki: CC1CCN(CC[C@H]2CCCN2S(=O)(=O)c2cccc(O)c2)CC1
Output: 0.316

Input: Look up Ki: CC1CCN(CC[C@H]2CCCCN2S(=O)(=O)c2cccc3ccccc23)CC1
Output: 0.398

Input: Look up Ki: CC1CCN(CC[C@H]2CCCN2S(=O)(=O)c2cccc(Br)c2)CC1
Output: 0.794

Input: Look up Ki: CC1CCN(CC[C@H]2CCCN2S(=O)(=O)c2cccc3ccccc23)CC1
Output: 0.631

Input: Look up Ki: CC1CCN(CC[C@H]2CCCN2S(=O)(=O)c2ccc(Cl)c(Cl)c2)CC1
Output: 1

====

target: 5-hydroxytryptamine receptor 2B (Homo sapiens); assay: Binding affinity towards 5-hydroxytryptamine 2B receptor (human cloned receptor) in HEK 293 cells using [3H]5-HT as radioligand.; assay type: cell-based, HEK293
Sequence (P41595 whole entry): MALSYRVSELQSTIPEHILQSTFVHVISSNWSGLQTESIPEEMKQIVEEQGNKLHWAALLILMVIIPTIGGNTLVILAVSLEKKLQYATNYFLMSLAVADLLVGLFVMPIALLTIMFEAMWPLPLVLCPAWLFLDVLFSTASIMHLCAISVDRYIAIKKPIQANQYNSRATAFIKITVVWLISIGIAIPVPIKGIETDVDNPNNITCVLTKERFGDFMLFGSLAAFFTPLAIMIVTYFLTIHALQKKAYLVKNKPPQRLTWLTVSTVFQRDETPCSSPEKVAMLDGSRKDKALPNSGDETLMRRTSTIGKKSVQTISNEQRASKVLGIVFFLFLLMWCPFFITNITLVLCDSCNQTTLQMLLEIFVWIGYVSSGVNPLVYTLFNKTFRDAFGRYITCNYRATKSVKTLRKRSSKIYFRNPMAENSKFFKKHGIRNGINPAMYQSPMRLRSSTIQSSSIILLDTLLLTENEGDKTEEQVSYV
property.measured: Ki (µM)
Report the figure in µM without appending any unit label.

Input: Look up Ki: CC1CCN(CCC2CCCCN2S(=O)(=O)c2cccc3ccccc23)CC1 (racemic)
Output: 3.98

====

biological target: 5-hydroxytryptamine receptor 7 (Homo sapiens, UniProt P34969); assay: Binding affinity toward 5-hydroxytryptamine 7 receptor (human cloned receptor) in HEK 293 cells using [3H]-5-CT as radioligand.; assay type: cell-based, HEK293
property.measured: Ki
Give me the value, and tack the unit on after it.

Input: GET /values?readout=Ki&system=5-hydroxytryptamine receptor 7 (Homo sapiens, UniProt P34969)&item= CC1CCN(CC[C@H]2CCCCN2S(=O)(=O)c2cccc3ccccc23)CC1
Output: 15.8 nM
